Reported values of growth for individual entries
Tested on: HCT-15 colon
Assay: NCI-60 one-dose screen, 48 h (100 = growth as untreated, 0 = no growth, -100 = all killed)
Settings: 10 µM unless noted
About 83,000 compounds went through this panel and 20% of them were active in at least one assay; those are over-represented in the sample as a whole.

# molecule, growth / %
measured = [
    ("C[C@@H]1CCC2=C(CCC[C@]2(C)C(=O)O)[C@@]1(C)CCc1ccoc1", 102),
    ("COc1ccc(-c2nn(-c3ccccc3)cc2/C=C2\\SC(=O)NC2=O)cc1", 89.4),
    ("OCCNCCNc1c2ccccc2nc2ccccc12", 97.2),
    ("Cc1cc2cc3cc(C)c(N(C)C)cc3nc2cc1N(C)C", 71.6),
    ("O=C1/C(=C/c2ccccc2)CN(CCC(=O)N2C/C(=C\\c3ccccc3)C(=O)/C(=C/c3ccccc3)C2)C/C1=C\\c1ccccc1", 18.8),
    ("O=c1c2cccc3c(Nc4ccccn4)ccc(c32)c2nc3ccccc3n12", 59.2),
    ("C=CC[N+]1(CCO)CCN=C1CCCCCCCCCCCCC (centres undefined)", -74.5),
    ("C=C1CC[C@@H]2[C@](C)(COC(C)=O)[C@H](OC(C)=O)CC[C@@]2(C)[C@@H]1CC(Nc1ccc(S(=O)(=O)Nc2nc(C)cc(C)n2)cc1)C1=CCOC1=O (some centres undefined)", 49.2),
    ("Nc1nc(-c2ccc(F)cc2)cc(-c2cnn(-c3ccccc3)n2)n1", 95.4),
]

----------
Test system: U251 CNS
Experiment: NCI-60 one-dose screen, 48 h (100 = growth as untreated, 0 = no growth, -100 = all killed)
Settings: 10 µM unless noted
About 83,000 compounds went through this panel and 20% of them were active in at least one assay; those are over-represented in the sample as a whole.
Reported values of growth for individual entries

# compound, growth [%]
data = [
    ("CCCCCCCCCc1cc(CN2CCCCC2)c(O)c(CN2CCCCC2)c1", 45.1),
    ("C=C1CCC2C3(C)COC(c4ccccc4Br)OC3CCC2(C)C1C/C=C1/C(=O)OCC1OC(C)=O (centres undefined)", -95.9),
    ("CN(C)c1ccc(/C=C\\C2=[N+](C)c3ccccc3C2(C)C)cc1", 11),
    ("CCN(CC)c1ccc(CNc2cc(C)nc3ccc(OC)cc23)cc1", 25),
    ("CCOC(=O)c1cnc2cc(Cl)c(F)cc2c1Nc1cccc(NS(C)(=O)=O)c1", 106),
    ("CCCCOc1ccc(NC(=O)n2nc(NC(C)=O)c3cc(NC(C)=O)ccc32)cc1", 96.2),
    ("COc1ccc(C(=O)c2sc3nc4c(cc3c2N)CCCC4)cc1OC", 39.9),
    ("Cn1cc(-c2ccc(-c3cn(C)c4ncccc34)[nH]2)c2cccnc21", -44.1),
    ("CCN(CC)CC(C)(C)C(=O)/C=C/c1ccccc1", 86.4),
    ("COc1ccc(-n2cc(-c3ccccc3)c3c(SCC(=O)N/N=C/c4ccc([N+](=O)[O-])cc4)ncnc32)cc1", 104),
    ("Cn1c2ccccc2c2c3c(c4c5ccccc5n(CCCCCC#N)c4c21)C(=O)N(O)C3=O", 12.8),
    ("COc1ccc(-c2cc(-c3cccnc3)nc3sc4c(=O)n(-c5ccc(C)cc5)nnc4c23)cc1OC", 104),
    ("COc1nc2c(cc1S(=O)(=O)c1ccccc1)CCc1c-2cnn1-c1ccc(Cl)cc1", 92.1),
    ("O=C(CN1CCN(c2cc3c(cc2F)c(=O)c(C(=O)O)cn3C2CC2)CC1)Nc1cc(=O)[nH]c(=O)[nH]1", 106),
    ("COc1ccc(C(=O)/C=C/c2c[n+](=O)c3ccc(F)cc3n2[O-])cc1", 95.1),
    ("CC(=O)C1=C(O)C=C2Oc3c(C(=O)/C=C/c4cc(C(F)(F)F)cc(C(F)(F)F)c4)c(O)c(C)c(O)c3[C@]2(C)C1=O", -48.1),
    ("CCN(CC)CCCNc1cc(OC)cc2nc3cc(Cl)ccc3nc12", 4.3),
    ("Cc1cc(OCc2ccc(C(F)(F)F)cc2)c2c(c1)C(=O)C=C(NCCN1CCCC1)C2=O", 22.3),
    ("CCN(CC)Cc1cc(Nc2c3ccc(Cl)cc3nc3c(C)cccc23)ccc1O", -62.4),
    ("CC1(C)CC(=O)C(c2c(-c3ccccc3)[nH]c3[nH]c(=S)[nH]c(=O)c23)=C(O)C1", 105),
    ("COc1cc(NCCCCN=C(N)N)c2ncccc2c1", 48.7),
    ("O=S(=O)(NCCCNc1cc(-c2cn(-c3ccccc3)nc2-c2ccccc2)ccn1)c1ccc(C(F)(F)F)cc1", 44.4),
    ("O=C1c2ccccc2-c2nccc3cc(Cl)nc1c23", 32.8),
    ("C=C1CC[C@@H]2[C@](C)(COC(C)=O)[C@H](OC(C)=O)CC[C@@]2(C)[C@@H]1CC(Nc1ccc(S(=O)(=O)Nc2ccc(Cl)nn2)cc1)C1=CCOC1=O (some centres undefined)", -41.2),
    ("CCN(CC)CCC(=O)Nc1ccc(Cn2nnc3c2C(=O)c2nnn(Cc4ccc(NC(=O)CCN(CC)CC)cc4)c2C3=O)cc1", -85.1),
    ("N#CC1=C(N)Oc2c(ccc3ccccc23)C1c1cccs1 (centres undefined)", 13.3),
    ("COc1ccc(C/C(C)=C(\\c2ccc(OCCN3CCCCCC3)cc2)c2ccc(OC(=O)C3CCCCC3)cc2)cc1", 44.1),
    ("CC/C=C\\C[C@H](O)C/C=C1/C(=O)C=C[C@@H]1C/C=C\\CCCC(=O)NC", -8.98),
    ("COc1ccc2nc3cc(Cl)ccc3c(N3CCN(c4nccc(Nc5ccc(Cl)cc5)n4)CC3)c2c1", 62.1),
    ("COC1=CC(=O)C(OC)=C(OC)C1=O", 100),
    ("COc1ccc(-c2cn3c(ccc4ccccc43)n2)cc1", 105),
    ("O=[N+]([O-])c1cccc(-c2nc3sccn3c2-c2ccnc(NCCNS(=O)(=O)c3ccc(C(F)(F)F)cc3)n2)c1", 51.4),
    ("Cc1ccn2c(-c3csc(Nc4cccc(O)c4)n3)c(C)nc2c1", 28.6),
    ("COc1cc(NCCCCCN=C(N)NC(N)=NC(C)C)c2ncccc2c1", 20.5),
    ("Nc1cccc(NC(=O)C(=O)Nc2cccc(N)c2)c1", 95.8),
    ("COc1ccc(S(=O)(=O)NCCCNc2cc(-c3c(-c4cccc(OC)c4)nc4sccn34)ccn2)cc1", 59.4),
    ("Oc1ccc2c(=S)cc(-c3ccc(Br)cc3)oc2c1O", -7.83),
    ("O=C(COc1cccc(/C=C2/Oc3ccccc3C2=O)c1)Nc1nccs1", 89.4),
    ("Nc1c(C(=O)Nc2ccccc2)sc2nc3c(cc12)CN(CCc1ccccc1)CC3", 91.3),
]
